Below is a list of entries, each paired with its recorded growth value.
# Tested on: A498 renal
# experiment-summary: NCI-60 one-dose screen, 48 h (100 = growth as untreated, 0 = no growth, -100 = all killed)
# experimental-setup: 10 µM
Compounds without any hit were thinned out: in the full panel of roughly 83,000, 20% have a hit.
quantity: growth (%)

[
  {
    "compound": "COc1ccccc1CNCCCN1C(=O)c2ccc3c4c(ccc(c24)C1=O)C(=O)N(CCCNCCNCCCN)C3=O",
    "quantitative-result": 60.9
  },
  {
    "compound": "NC(N)=NS(=O)(=O)c1ccc(Nc2ccc3nnc(-c4ccncc4)n3n2)cc1",
    "quantitative-result": 95.5
  },
  {
    "compound": "CCOC(=O)c1c(C(F)(F)F)n([O-])c2ccc(OC)cc2[n+]1=O",
    "quantitative-result": 50.8
  },
  {
    "compound": "COc1ccc(Nc2nc(NCc3ccccc3)c3ccccc3n2)cc1",
    "quantitative-result": 38.9
  },
  {
    "compound": "Cc1ccc2nc3[nH]c(=O)[nH]c(=O)c3c(N)c2c1",
    "quantitative-result": 115
  },
  {
    "compound": "CCCCCCCCCCCCCCCCn1cc[n+](C)c1",
    "quantitative-result": -65.3
  },
  {
    "compound": "COc1cc(-c2nc3ccccc3[nH]2)ccc1OCC(=O)N=Nc1c(O)[nH]c2ccccc12",
    "quantitative-result": 95.2
  },
  {
    "compound": "CC1(C)CC(OCCCC[P+](c2ccccc2)(c2ccccc2)c2ccccc2)CC(C)(C)N1O",
    "quantitative-result": -5.35
  },
  {
    "compound": "Cc1nc(Nc2nc3ccccc3o2)nc(-c2cccc([N+](=O)[O-])c2)c1C(=O)Nc1ccc(F)c(Cl)c1",
    "quantitative-result": -37.2
  },
  {
    "compound": "O=[N+]([O-])C1CC2C=CC1C2 (configuration not stated)",
    "quantitative-result": 78.2
  },
  {
    "compound": "COc1cc(C(=O)n2nc(N)c3c(C)cc(C)nc32)cc(OC)c1OC",
    "quantitative-result": 60.2
  },
  {
    "compound": "COc1ccc(-c2ccccc2)cc1C(=O)c1ccc(-c2ccccc2)cc1",
    "quantitative-result": 93.6
  },
  {
    "compound": "C/C=C\\COc1cc(C)c(Cl)cc1Cl",
    "quantitative-result": 101
  },
  {
    "compound": "COc1ccc(-c2nc3sc(-c4ccccc4)c(-c4ccccc4)n3c2/C=C/c2ccc(F)cc2)cc1",
    "quantitative-result": 108
  },
  {
    "compound": "N#CC1C=Cc2c(ccc3ccccc23)N1C(=O)c1ccccc1 (configuration not stated)",
    "quantitative-result": -7.88
  },
  {
    "compound": "O=[N+]([O-])c1ccc2c(c1)Cc1cc(I)ccc1-2",
    "quantitative-result": 102
  },
  {
    "compound": "O=C1CC(c2cccc(-c3cccnc3)c2)=Nc2ccc(Br)cc2N1",
    "quantitative-result": -4.26
  },
  {
    "compound": "CCOC(=O)c1sc(Nc2ncccn2)nc1-c1ccccn1",
    "quantitative-result": 90.2
  },
  {
    "compound": "Cc1ccc(Cl)cc1Nc1nc(C(F)(F)F)ccc1C(=O)N/N=C/c1c(Cl)cccc1Cl",
    "quantitative-result": -13.3
  },
  {
    "compound": "CCOC(=O)C1=C(Nc2ccc(OC)cc2)C(N)=NC1=N",
    "quantitative-result": 6.8
  },
  {
    "compound": "Nc1ccc2c(c1)Cc1cc(N)c(Cl)cc1-2",
    "quantitative-result": 118
  },
  {
    "compound": "CCCC(C)c1ccc(OCCCCCCN2CCNCC2)cc1 (configuration not stated)",
    "quantitative-result": 50.5
  }
]

Recorded values, source PubChem BioAssay (NCI).
